target: GABAA (α1β2γ2s) receptors (UniProt P14867+P18508+P63138); construct: expressed in transfected cells; host or cells: Xenopus laevis oocytes (intranuclear plasmid injection, α1:β2:γ2 = 1:1:10); assay: GABAA receptor two-electrode voltage clamp in oocytes at saturated drug concentration; type: cell-based, human α1, rat β2 and γ2s; settings: drug with γ-aminobutyric acid; percent of control agonist peak; mean ±SEM, 5-6 oocytes; saturated drug
Sequence (P14867 28-456): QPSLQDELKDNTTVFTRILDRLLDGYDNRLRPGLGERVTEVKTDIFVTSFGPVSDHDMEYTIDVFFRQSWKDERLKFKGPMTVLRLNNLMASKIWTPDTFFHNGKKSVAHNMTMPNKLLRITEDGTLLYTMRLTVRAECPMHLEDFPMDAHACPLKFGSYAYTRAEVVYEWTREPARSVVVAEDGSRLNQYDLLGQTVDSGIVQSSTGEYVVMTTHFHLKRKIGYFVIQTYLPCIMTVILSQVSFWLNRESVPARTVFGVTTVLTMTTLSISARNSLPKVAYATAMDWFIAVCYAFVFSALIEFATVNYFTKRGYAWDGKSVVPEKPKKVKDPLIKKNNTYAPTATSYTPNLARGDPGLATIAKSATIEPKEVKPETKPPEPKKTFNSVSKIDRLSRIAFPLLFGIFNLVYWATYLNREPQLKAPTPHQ
Sequence (P63138 25-474 limits assumed): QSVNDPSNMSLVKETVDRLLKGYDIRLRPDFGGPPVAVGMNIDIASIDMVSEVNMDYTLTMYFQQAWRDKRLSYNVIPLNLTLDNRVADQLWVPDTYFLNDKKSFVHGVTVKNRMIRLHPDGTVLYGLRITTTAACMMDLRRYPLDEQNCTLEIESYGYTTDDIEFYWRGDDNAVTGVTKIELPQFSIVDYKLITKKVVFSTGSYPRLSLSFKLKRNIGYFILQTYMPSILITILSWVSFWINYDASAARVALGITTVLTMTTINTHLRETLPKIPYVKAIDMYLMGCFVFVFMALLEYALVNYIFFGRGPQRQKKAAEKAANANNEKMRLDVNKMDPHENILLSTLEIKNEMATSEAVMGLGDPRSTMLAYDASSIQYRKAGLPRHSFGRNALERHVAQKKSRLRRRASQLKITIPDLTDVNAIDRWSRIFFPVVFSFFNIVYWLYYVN
Sequence (P18508 39-466): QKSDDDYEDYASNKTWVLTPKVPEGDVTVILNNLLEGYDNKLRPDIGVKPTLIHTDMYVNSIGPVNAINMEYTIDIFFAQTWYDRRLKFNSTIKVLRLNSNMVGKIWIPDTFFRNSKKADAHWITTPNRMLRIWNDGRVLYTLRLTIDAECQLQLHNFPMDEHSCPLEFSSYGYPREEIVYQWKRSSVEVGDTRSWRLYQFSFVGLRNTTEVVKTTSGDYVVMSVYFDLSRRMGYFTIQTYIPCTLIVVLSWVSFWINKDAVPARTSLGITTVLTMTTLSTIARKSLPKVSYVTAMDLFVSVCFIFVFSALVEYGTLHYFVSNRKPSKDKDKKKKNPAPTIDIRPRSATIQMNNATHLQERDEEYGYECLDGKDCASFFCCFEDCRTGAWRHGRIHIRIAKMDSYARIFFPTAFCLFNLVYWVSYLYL
Item-by-item account of GABAA % Agonist Effect
Respond numerically; units are % and should not be typed.

See these solved cases before continuing.
{"columns": ["compound", "endpoint.value"],
 "data": [
  ["CCCCCCCCCCCCCCCCCCN", 146],
  ["CCCCCCCCCC=O", 159],
  ["CCCCCF", 539],
  ["CCCCCCF", 207],
  ["CCCCCCSCC [1-(ethylthio)-hexane]", 350],
  ["CCCCCCC(=O)OCC [ethyl heptanoate]", 370],
  ["CCCCCCCC=O", 357],
  ["C1CCCC1", 196],
  ["C=CCCC", 453],
  ["CCCCCCCCC=O", 219]
]}

Kindly review the next compound as well.
Exam item: Entry under review: CCCCCCCCCC(=O)OCC [ethyl decanoate] . Reported GABAA % Agonist Effect?
Marked response: 137

* * *

molecular target: GABAA (α1β2γ2s) receptors (UniProt P14867+P18508+P63138); construct: expressed in transfected cells; host or cells: Xenopus laevis oocytes (intranuclear plasmid injection, α1:β2:γ2 = 1:1:10); experiment: GABAA receptor two-electrode voltage clamp in oocytes at saturated drug concentration; format: cell-based, human α1, rat β2 and γ2s; conditions: drug response without receptor agonist; percent of control agonist peak; mean ±SEM, 5-6 oocytes; saturated drug
Item-by-item account of GABAA % Direct Effect
Respond numerically; units are % and should not be typed.

{"columns": ["compound", "endpoint.value"],
 "data": [
  ["CCCCCCF [1-fluorohexane]", 11]
]}

Exam item: Entry under review: C#CCCCC [1-hexyne] . Reported GABAA % Direct Effect?
Marked response: 5

* * *

biological target: GABAA (α1β2γ2s) receptors (UniProt P14867+P18508+P63138); construct: expressed in transfected cells; host or cells: Xenopus laevis oocytes (intranuclear plasmid injection, α1:β2:γ2 = 1:1:10); experiment: GABAA receptor two-electrode voltage clamp in oocytes at saturated drug concentration; format: cell-based, human α1, rat β2 and γ2s; conditions: drug response without receptor agonist; percent of control agonist peak; mean ±SEM, 5-6 oocytes; saturated drug
measurement.type: GABAA % Direct Effect

{"columns": ["molecule", "target.under.test", "measurement.type", "endpoint.value"],
 "data": [
  ["C1CCCCC1", "GABAA (α1β2γ2s) receptors (UniProt P14867+P18508+P63138)", "GABAA % Direct Effect", "none"],
  ["C=CCCCC", "GABAA (α1β2γ2s) receptors (UniProt P14867+P18508+P63138)", "GABAA % Direct Effect", "none"],
  ["CCCCCCCCCC(=O)OCC [ethyl decanoate]", "GABAA (α1β2γ2s) receptors (UniProt P14867+P18508+P63138)", "GABAA % Direct Effect", "none"],
  ["CCCCCCCCCCC=O", "GABAA (α1β2γ2s) receptors (UniProt P14867+P18508+P63138)", "GABAA % Direct Effect", "none"]
]}

Exam item: Entry under review: C#CCCCCC . Reported GABAA % Direct Effect?
Marked response: none

Values were extracted from patent US10010525B2.
